Every entry's value here was drawn from patent US20200247894A1.

Assign koff to each entry below.
measurementTarget: T1, Human IL2Rγ extracellular domain expressed with a C-terminal myc-myc-hexahistidine tag (human)
T1 construct: also called hIL-2Rg-MMH; hIL-2RG-MMH
T1 chain: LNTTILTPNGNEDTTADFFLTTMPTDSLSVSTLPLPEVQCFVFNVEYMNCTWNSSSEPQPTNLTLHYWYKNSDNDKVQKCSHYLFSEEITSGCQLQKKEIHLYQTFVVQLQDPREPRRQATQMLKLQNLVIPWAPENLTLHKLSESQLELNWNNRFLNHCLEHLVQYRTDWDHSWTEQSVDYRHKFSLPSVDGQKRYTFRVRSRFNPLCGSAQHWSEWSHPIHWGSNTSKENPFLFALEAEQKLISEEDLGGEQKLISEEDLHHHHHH
assayMethodText: SPR Biacore 4000, mAb captured by anti-hFc, HBS-ET, 25C
Report the figure in s⁻¹ without appending any unit label.

Look up koff: H4H12889P (antibody, human IgG4 S228P, kappa, V domains shown, anti-IL2Rγ monoclonal antibody expressed with human IgG4 Fc; also called REGN7257) VH: EVQLVESGGGLVQPGGSLRLSCAASGFIFSSYEMHWVRQAPGKGLEWISYISSSGTTIYYADSVKGRFTISRDNAKNSLYLHMNSLRAEDTAVYYCTRARITGTFDVFDIWGQGTMVTVSS VL: DIQMTQSPSSLSASVGDRVTITCRASQSISSYLNWYQQKPGKAPKLLIFAASNLQSGVPSRFSGSRSGTDFTLTISSLQPEDFATYYCQQNYNIPYTFGQGTKLEIKR
0.00042

Repeat for the following binder: H4H13541P (antibody, human IgG4 S228P, kappa, V domains shown, anti-IL2Rγ monoclonal antibody expressed with human IgG4 Fc) VH: EVQLVESGGGVVRPGGSLRLSCAASGFIFDDYDMSWVRQPPGRGLEWVSGIDWFGGTRGYADSMKGRFTISRDNAKNSLYLQMNSLRVEDTAFYYCARGGAIVGAVTPFDYWGQGTLVTVSS VL: DIQMTQSPSSLSASVGNRVTLSCRASQSINTYLSWYQQRPGKAPKLLIYAASSLQSGVPSRFSGSGAGTDFTLTISSLQPEDFATYYCQQSYSAPLTFGGGTKVEIKR
0.000252

Subsequent entry: H4H12874P (antibody, human IgG4 S228P, kappa, V domains shown, anti-IL2Rγ monoclonal antibody expressed with human IgG4 Fc) VH: QVQLVESGGGVVQPGRSLRLSCAASGFNFRNFGMHWVRQAPGKGLEWVAGILYDGSSKYYADSVKDRFTISRDNSKNTLFLQMNSLRAEDTAMYYCAKEEDTAMVPFDSWGPGTLVTVSS VL: DIQLTQSPSFLSASVGDRVTITCWASQGISSYLAWYQQKPGKAPTLLIYAASTLQSGVPSRFSGSGSGTEFTLTISSLQPEDFASYYCQQLKSYPLTFGGGTKVEIKR
0.000305

Now consider H4H12863P (antibody, human IgG4 S228P, kappa, V domains shown, anti-IL2Rγ monoclonal antibody expressed with human IgG4 Fc) VH: QVQLVESGGGVVQPGRSLRLSCTASGFTFRSYDMYWVRQAPGKGLEWVSVITYDGNNKYYADSVKGRFTISRDNSKNTLFLQMSSLRPEDTAVYYCAKRGLIWVGESFDYWGQGTLVTVSS VL: DIQMTQSPSTLSASVGDRVTITCRASQSINSWLAWYQQKPGKAPNLLIYKASSLESGVPSRFSGSGSGTEFTLTISSLQPDDFATYYCQQYKSYSWTFGQGTKVEIKR .
0.000384

Another binder: H4H12886P (antibody, human IgG4 S228P, kappa, V domains shown, anti-IL2Rγ monoclonal antibody expressed with human IgG4 Fc) VH: EVQLVESGGGLVKPGGSLRLSCAASGFTFSTAWMSWVRQSPGRGLEWVGRMKSKTDGGTTFYAAPVKGRFTISRDDSKNTLYLQMNSLKTEDTAVYYCTTGLVPAFYKYYGVDVWGQGTTVTVSS VL: DIQMTQSPSSLSASVGDRITITCQASQDITNYLNWYQQKPGKAPNLLIYDASNLVTGVPSRFSGSGSGTDFTFTILSLQPEDIATYYCQQYDSLLTFGPGTKVDIKR
0.00027
